Please go through the items and note down their IC50.
systemTested: Leucine-rich repeat serine/threonine-protein kinase 2 (Homo sapiens, UniProt Q5S007, G2019S)
Sequence (Q5S007 whole entry G2019S): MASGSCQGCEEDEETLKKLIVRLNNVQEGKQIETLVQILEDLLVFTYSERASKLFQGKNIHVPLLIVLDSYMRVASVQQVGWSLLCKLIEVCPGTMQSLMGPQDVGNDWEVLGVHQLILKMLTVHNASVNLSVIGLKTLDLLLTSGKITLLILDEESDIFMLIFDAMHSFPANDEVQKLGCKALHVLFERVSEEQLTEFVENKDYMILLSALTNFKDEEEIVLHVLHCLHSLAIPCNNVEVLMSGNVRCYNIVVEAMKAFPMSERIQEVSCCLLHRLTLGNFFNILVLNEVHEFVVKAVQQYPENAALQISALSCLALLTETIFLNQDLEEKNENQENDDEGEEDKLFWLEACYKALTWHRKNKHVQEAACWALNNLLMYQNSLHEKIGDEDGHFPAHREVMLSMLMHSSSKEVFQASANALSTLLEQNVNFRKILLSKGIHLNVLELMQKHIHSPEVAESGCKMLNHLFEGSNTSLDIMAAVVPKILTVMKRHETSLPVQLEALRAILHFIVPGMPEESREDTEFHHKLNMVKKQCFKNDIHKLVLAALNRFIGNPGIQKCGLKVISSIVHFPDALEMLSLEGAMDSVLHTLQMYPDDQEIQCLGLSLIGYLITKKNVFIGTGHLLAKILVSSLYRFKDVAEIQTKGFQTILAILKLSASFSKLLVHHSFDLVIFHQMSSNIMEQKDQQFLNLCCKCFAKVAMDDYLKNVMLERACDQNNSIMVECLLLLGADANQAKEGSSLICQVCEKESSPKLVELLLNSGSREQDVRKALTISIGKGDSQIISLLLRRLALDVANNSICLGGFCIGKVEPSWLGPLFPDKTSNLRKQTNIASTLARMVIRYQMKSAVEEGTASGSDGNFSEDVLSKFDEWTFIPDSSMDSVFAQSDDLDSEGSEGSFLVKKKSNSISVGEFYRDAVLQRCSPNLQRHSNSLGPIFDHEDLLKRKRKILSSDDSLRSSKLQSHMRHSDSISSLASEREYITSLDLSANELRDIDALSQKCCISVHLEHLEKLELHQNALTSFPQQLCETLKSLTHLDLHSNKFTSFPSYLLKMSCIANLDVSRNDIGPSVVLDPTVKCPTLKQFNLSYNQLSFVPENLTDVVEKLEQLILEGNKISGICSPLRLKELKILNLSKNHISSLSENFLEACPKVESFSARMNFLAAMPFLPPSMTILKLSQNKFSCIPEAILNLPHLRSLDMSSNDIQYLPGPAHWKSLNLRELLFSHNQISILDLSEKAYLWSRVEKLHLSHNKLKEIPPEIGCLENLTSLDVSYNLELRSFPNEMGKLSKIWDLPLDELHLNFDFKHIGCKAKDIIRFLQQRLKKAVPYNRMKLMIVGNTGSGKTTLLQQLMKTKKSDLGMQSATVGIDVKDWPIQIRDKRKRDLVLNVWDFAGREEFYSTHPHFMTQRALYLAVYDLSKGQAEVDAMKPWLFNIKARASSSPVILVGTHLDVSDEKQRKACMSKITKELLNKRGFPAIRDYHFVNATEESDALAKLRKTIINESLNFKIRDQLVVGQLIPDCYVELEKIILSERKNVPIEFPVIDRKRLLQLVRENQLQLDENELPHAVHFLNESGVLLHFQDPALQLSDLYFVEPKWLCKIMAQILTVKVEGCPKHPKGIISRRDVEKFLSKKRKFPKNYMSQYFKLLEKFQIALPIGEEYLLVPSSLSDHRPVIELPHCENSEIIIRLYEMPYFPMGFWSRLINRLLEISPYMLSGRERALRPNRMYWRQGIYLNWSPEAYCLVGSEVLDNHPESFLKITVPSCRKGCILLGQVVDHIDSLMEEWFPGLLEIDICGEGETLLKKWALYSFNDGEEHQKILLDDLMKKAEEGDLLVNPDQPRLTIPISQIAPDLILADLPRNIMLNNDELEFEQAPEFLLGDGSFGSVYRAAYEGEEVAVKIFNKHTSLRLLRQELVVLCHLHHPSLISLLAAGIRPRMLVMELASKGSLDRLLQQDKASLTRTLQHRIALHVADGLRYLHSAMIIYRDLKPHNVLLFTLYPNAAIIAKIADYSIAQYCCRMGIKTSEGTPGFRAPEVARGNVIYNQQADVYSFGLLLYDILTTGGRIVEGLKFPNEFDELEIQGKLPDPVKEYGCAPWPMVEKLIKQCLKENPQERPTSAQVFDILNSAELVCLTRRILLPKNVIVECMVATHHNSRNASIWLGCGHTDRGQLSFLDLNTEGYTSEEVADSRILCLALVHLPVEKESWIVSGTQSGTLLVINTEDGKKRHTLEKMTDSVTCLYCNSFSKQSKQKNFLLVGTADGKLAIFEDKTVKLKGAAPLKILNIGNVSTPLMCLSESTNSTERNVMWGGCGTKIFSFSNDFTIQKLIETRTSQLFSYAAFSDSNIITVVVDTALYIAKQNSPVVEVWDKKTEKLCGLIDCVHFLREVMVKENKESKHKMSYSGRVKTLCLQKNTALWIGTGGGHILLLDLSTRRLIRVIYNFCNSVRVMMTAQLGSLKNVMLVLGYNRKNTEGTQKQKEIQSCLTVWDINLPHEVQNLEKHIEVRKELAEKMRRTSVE
protocolDescription: Inhibition of human LRRK2 G2019S mutant phosphorylation at S1292 in human HEK293 cells incubated for 2 hrs
Type: cell-based
// units = nM; emit number, no label

Form field: reported IC50 of "Cc1n[nH]c2ccc(O[C@H]3CCCc4cc(C#N)ccc43)cc12" 62

Form field: reported IC50 of "N#Cc1ccc2c(c1)CC[C@@H]2Nc1ccc2[nH]nc(-c3ccoc3)c2c1" 57

Form field: reported IC50 of "N#Cc1ccc2c(c1)CCC[C@@H]2Oc1ccc2[nH]nc(-c3cnco3)c2c1" 3.5

Form field: reported IC50 of "N#Cc1ccc2c(c1)CC[C@@H]2Oc1ccc2[nH]nc(-c3cnco3)c2c1" 8.3

Origin of measurements: ChEMBL document CHEMBL5365501
